molecular target: IGFR-1 (Homo sapiens, UniProt P08069); construct: Kinases are expressed as either kinase domains or full length constructs; made in house; test: Kinase inhibition assay (33P transfer), IGFR-1; assay type: biochemical; settings: Table 2, kinase inhibition class
Sequence (P08069 31-1367): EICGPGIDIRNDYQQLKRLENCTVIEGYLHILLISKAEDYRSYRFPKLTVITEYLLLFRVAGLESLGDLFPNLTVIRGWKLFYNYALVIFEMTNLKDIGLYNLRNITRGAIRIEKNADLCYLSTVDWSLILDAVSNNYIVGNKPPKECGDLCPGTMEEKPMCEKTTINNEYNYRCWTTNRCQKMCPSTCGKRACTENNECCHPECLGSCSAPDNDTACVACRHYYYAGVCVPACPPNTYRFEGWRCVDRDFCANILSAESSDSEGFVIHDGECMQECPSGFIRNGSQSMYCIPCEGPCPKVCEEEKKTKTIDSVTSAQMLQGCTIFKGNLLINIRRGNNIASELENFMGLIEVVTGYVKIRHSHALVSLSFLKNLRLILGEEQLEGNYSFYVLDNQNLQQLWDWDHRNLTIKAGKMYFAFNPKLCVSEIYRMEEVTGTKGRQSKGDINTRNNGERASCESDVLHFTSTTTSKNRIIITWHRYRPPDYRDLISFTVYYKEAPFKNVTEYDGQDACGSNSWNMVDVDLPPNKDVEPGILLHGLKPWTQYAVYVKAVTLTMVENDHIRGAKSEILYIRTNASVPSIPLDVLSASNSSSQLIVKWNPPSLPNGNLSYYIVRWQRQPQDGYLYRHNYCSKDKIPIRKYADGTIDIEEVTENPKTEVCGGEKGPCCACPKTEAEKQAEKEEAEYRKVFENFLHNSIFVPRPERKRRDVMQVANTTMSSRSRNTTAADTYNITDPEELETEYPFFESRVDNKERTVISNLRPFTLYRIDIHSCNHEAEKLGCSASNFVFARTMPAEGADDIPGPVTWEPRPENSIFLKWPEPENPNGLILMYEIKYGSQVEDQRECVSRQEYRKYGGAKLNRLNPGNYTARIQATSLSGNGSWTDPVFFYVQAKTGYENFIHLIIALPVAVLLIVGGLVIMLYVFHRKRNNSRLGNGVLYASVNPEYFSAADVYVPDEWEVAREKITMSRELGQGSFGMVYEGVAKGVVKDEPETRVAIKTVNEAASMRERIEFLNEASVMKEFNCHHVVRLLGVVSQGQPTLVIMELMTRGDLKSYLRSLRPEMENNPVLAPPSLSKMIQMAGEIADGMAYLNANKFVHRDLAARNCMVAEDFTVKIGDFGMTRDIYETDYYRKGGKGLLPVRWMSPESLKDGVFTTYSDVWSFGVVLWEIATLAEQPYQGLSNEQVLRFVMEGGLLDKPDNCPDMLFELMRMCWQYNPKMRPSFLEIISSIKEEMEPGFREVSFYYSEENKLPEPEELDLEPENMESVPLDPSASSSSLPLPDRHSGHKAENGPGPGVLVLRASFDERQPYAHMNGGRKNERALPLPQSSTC
pIC50: −log10 of the molar value.

- Smiles String: "COc1cc(Nc2ncnc(Nc3ccc(F)c(Cl)c3)n2)cc(OC)c1OC"
  pIC50: "> 6.01"
- Smiles String: "COc1ccc(Nc2ncnc(Nc3cc(OC)c(OC)c(OC)c3)n2)cc1"
  pIC50: "5.20 to 5.98"
- Smiles String: "COc1cc(Nc2ncnc(-c3cccc(Cl)c3)n2)cc(OC)c1OC"
  pIC50: "< 4.92"
- Smiles String: "COc1ccc(Oc2ncnc(Nc3cc(OC)c(OC)c(OC)c3)n2)cc1"
  pIC50: "< 4.93"
- Smiles String: "COc1cc(Nc2ncnc(Nc3ccc(C)c(O)c3)n2)cc(OC)c1OC"
  pIC50: "5.20 to 5.98"
- Smiles String: "COc1ccc(Nc2ncnc(Nc3cccc(Br)c3)n2)cc1OC"
  pIC50: "5.22 to 6.00"
- Smiles String: "COc1cc(Nc2ncnc(Nc3ncncn3)n2)cc(OC)c1OC"
  pIC50: "< 4.90"
- Smiles String: "COc1cc(Nc2ncnc(Nc3ccc(Br)c(Cl)c3)n2)cc(OC)c1OC"
  pIC50: "> 6.07"
- Smiles String: "COc1cc(Nc2ncnc(Nc3ccc4c(c3)Cc3ccccc3-4)n2)cc(OC)c1OC"
  pIC50: "5.26 to 6.04"
- Smiles String: "COc1cc(Nc2ncnc(Nc3ccc(Oc4ccccc4)cc3)n2)cc(OC)c1OC"
  pIC50: "5.10 to 5.27"

###

biological target: EGFR (Homo sapiens); construct: Kinases are expressed as either kinase domains or full length constructs; made in house; assay: Kinase inhibition assay (33P transfer), EGFR; format: biochemical; conditions: Table 2, kinase inhibition class; read-out: EGFR-1
Sequence (P00533 25-1210, species assumed): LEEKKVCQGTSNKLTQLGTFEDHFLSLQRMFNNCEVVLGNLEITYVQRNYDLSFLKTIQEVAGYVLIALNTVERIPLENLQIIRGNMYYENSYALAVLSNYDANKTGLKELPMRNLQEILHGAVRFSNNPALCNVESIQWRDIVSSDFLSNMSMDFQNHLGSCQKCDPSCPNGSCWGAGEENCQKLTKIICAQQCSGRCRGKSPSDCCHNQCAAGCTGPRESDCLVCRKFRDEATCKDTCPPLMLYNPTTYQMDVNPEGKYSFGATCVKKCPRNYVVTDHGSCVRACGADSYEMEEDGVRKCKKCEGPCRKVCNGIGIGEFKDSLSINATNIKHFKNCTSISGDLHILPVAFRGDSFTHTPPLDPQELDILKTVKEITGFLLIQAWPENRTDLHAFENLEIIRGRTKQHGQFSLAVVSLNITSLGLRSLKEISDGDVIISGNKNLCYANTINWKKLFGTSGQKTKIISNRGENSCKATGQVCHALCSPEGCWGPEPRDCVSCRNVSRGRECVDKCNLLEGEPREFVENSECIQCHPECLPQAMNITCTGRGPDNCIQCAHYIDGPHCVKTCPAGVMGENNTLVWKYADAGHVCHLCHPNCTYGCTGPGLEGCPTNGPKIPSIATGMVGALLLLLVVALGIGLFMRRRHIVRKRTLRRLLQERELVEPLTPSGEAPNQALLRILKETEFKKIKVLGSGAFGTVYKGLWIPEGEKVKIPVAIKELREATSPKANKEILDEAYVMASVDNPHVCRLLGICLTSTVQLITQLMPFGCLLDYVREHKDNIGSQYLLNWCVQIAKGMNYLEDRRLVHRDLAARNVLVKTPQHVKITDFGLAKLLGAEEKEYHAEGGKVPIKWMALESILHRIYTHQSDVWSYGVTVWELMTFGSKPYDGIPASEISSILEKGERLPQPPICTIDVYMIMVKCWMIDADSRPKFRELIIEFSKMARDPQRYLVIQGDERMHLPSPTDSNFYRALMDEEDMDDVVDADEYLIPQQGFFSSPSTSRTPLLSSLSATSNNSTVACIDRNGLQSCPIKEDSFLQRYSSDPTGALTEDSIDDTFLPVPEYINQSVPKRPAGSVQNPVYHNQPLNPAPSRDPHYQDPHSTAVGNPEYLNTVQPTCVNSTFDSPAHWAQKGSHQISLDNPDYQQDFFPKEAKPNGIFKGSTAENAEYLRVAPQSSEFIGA
pIC50: −log10 of the molar value.
Measured pIC50, listed per entry.
Assay Metric: pIC50

- Molecule: "COc1cc(Nc2ncnc(Nc3cccc(OCc4ccccc4)c3)n2)cc(OC)c1OC [Compound 73]"
  Target Desc: "EGFR (Homo sapiens)"
  Result: "< 5.01"
- Molecule: "Cc1ccc2c(c1)CCCN2c1ncnc(Nc2ccc3ncsc3c2)n1 [Compound 773]"
  Target Desc: "EGFR (Homo sapiens)"
  Result: "5.19 to 5.97"
- Molecule: "COc1ccc(Nc2ncnc(-n3c(=O)[nH]c4ccccc43)n2)cn1 [Compound 489]"
  Target Desc: "EGFR (Homo sapiens)"
  Result: "< 4.87"
- Molecule: "COc1cc(Nc2ncnc(N(C)c3ccc(F)c(Cl)c3)n2)cc(OC)c1OC [Compound 710]"
  Target Desc: "EGFR (Homo sapiens)"
  Result: "> 6.02"
- Molecule: "Nc1ncnc(Nc2ccc(F)cc2F)n1 [Compound 1014]"
  Target Desc: "EGFR (Homo sapiens)"
  Result: "< 4.70"
- Molecule: "c1ccc(Cn2ncc3cc(Nc4ncnc(NCc5ccco5)n4)ccc32)cc1 [Compound 728]"
  Target Desc: "EGFR (Homo sapiens)"
  Result: "5.22 to 6.00"
- Molecule: "O=C(O)Cc1ccc(Nc2ncnc(Nc3cc(-c4ccccc4)n[nH]3)n2)cc1 [Compound 982]"
  Target Desc: "EGFR (Homo sapiens)"
  Result: "5.21 to 5.99"
- Molecule: "COc1cc(Nc2ncnc(Nc3cc(-c4cccc(Cl)c4)n[nH]3)n2)cc(OC)c1OC [Compound 495]"
  Target Desc: "EGFR (Homo sapiens)"
  Result: "5.28 to 6.05"
- Molecule: "COc1ccc(N(C)c2ncnc(Nc3cc(OC)c(OC)c(OC)c3)n2)cc1 [Compound 106]"
  Target Desc: "EGFR (Homo sapiens)"
  Result: "5.22 to 6.00"
- Molecule: "COc1cc(Nc2ncnc(-n3c(NCc4cccc(Br)c4)nc4ccccc43)n2)cc(OC)c1OC [Compound 946]"
  Target Desc: "EGFR (Homo sapiens)"
  Result: "5.10 to 5.21"
- Molecule: "CN(c1cccc(Cl)c1)c1ncnc(Cl)n1 [Compound 701]"
  Target Desc: "EGFR (Homo sapiens)"
  Result: "< 4.75"
- Molecule: "Cc1ccc(Nc2ncnc(Nc3cccc(CC(=O)O)c3)n2)cc1O [Compound 543]"
  Target Desc: "EGFR (Homo sapiens)"
  Result: "> 5.94"
- Molecule: "Oc1ccc(Nc2ncnc(-c3ccccc3)n2)cc1 [Compound 11]"
  Target Desc: "EGFR (Homo sapiens)"
  Result: "< 4.77"
- Molecule: "COc1ccc(Nc2ncnc(NC[C@@H]3CCCO3)n2)cc1OC [Compound 790]"
  Target Desc: "EGFR (Homo sapiens)"
  Result: "< 4.87"
- Molecule: "COc1cc(Nc2ncnc(N)n2)cc(OC)c1OC [Compound 1024]"
  Target Desc: "EGFR (Homo sapiens)"
  Result: "< 4.79"
- Molecule: "FC(F)C(F)(F)Oc1cccc(Nc2ncnc(-c3ccnc(N4CCCCC4)c3)n2)c1 [Compound 346]"
  Target Desc: "EGFR (Homo sapiens)"
  Result: "< 5.00"
- Molecule: "FC(F)(F)c1cccc(Nc2ncnc(-n3cccc3)n2)c1 [Compound 277]"
  Target Desc: "EGFR (Homo sapiens)"
  Result: "< 4.83"
- Molecule: "CCOc1ccc(Nc2ncnc(Nc3ccc(OCc4ccccc4)cc3)n2)cc1OCC [Compound 170]"
  Target Desc: "EGFR (Homo sapiens)"
  Result: "5.28 to 6.06"
- Molecule: "COc1cc(Nc2ncnc(Nc3cc(OC)c(OC)c(OC)c3)n2)ccc1OCCN1CCOCC1 [Compound 601]"
  Target Desc: "EGFR (Homo sapiens)"
  Result: "5.33 to 6.11"
- Molecule: "COc1ccc(Nc2ncnc(-n3c(N)nc4ccccc43)n2)cc1O [Compound 286]"
  Target Desc: "EGFR (Homo sapiens)"
  Result: "5.00 to 5.16"
- Molecule: "COc1cc(Nc2ncnc(-n3c(NCc4nccs4)nc4ccccc43)n2)cc(OC)c1OC [Compound 549]"
  Target Desc: "EGFR (Homo sapiens)"
  Result: "5.15 to 5.31"
- Molecule: "Cc1ccc2c(c1)CCCN2c1ncnc(Nc2ccc3c(c2)C(=O)OC3)n1 [Compound 763]"
  Target Desc: "EGFR (Homo sapiens)"
  Result: "> 5.97"
- Molecule: "COc1cc(Nc2ncnc(Nc3ccc4c(ccn4Cc4ccccc4)c3)n2)cc(OC)c1OC [Compound 178]"
  Target Desc: "EGFR (Homo sapiens)"
  Result: "> 6.08"
- Molecule: "COc1ccc(Oc2ncnc(Nc3cc(OC)c(OC)c(OC)c3)n2)cc1 [Compound 174]"
  Target Desc: "EGFR (Homo sapiens)"
  Result: "5.04 to 5.20"
- Molecule: "COC(=O)c1ccc(-c2cc(Nc3ncnc(Nc4cccc(CC(N)=O)c4)n3)[nH]n2)cc1 [Compound 577]"
  Target Desc: "EGFR (Homo sapiens)"
  Result: "4.99 to 5.10"
- Molecule: "Nc1nc2ccccc2n1-c1ncnc(Nc2cccc(CC(=O)O)c2)n1 [Compound 544]"
  Target Desc: "EGFR (Homo sapiens)"
  Result: "< 4.90"

The measurements presented in this section are drawn from patent US7074789B2.
